System: NCI-H226 lung
Test: NCI tumour cell line growth inhibition, 48 h
Parameter: TGI

>>> observed_result("COc1ccc(/C=C/C=C(/C#N)C(N)=S)cc1")
"> 100 µM"
>>> observed_result("Fc1cccc(COc2ccc(Nc3ncncc3C#Cc3ccccc3)cc2Cl)c1")
"> 25 µM"
>>> observed_result("O=c1c2ccccc2[nH]c(=S)n1-c1ccc(N=Nc2cccc3c(O)cccc23)cc1")
"> 100 µM"
>>> observed_result("CCSc1nnc(CSc2nc(-c3ccccc3)c(-c3ccccc3)[nH]2)n1-c1ccccc1")
"27.7 µM"
>>> observed_result("Cc1c(S(=O)(=O)c2ccccc2)c(N)n(Cc2ccccc2)c1C")
"> 100 µM"
>>> observed_result("N#C/C(=C\\NC(=S)Nc1ccc(S(=O)(=O)Nc2ccccn2)cc1)C(N)=O")
"> 100 µM"
>>> observed_result("O=c1[nH]c2ccccc2cc1C(Cl)=C(Cl)Cl")
"> 100 µM"
